target: 5-HT2C receptor (Homo sapiens); construct: expressed in transfected cells; host or cells: HEK-293 cells; assay: Radioligand binding assay, serotoninergic 5-HT2C receptors; details: test compound 1×10^−6 M
Sequence (P28335 33-458): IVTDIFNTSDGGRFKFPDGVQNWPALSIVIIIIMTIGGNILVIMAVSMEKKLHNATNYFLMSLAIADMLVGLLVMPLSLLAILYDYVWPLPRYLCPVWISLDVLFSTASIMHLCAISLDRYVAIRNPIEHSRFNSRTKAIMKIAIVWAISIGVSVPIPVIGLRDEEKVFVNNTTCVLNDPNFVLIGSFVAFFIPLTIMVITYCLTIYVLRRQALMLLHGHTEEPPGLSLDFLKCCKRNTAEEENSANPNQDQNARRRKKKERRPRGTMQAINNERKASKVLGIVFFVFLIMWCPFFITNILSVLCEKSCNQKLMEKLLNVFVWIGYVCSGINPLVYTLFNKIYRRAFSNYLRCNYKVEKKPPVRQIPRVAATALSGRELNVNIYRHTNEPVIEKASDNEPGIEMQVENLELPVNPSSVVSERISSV
Mark 0 for inhibition at 1 µM values under 70%, and 1 for everything at or above.

These solved cases illustrate the format of a correct answer.
Compound	Cat
CC(C)(C)c1ccc(S(=O)(=O)NCC2CN(CCOc3cccc4c3OCCO4)C2)cc1 [Compound 181]	1
O=S(=O)(NCC1CCN(CCOc2cccc3c2OCCO3)C1)c1ccc(F)c(Cl)c1 (stereo not drawn) [Compound 317]	0
O=S(=O)(NCC1CN(CCCc2noc3cc(F)ccc23)C1)c1ccc(-c2ccccc2)cc1 [Compound 135]	1
O=S(=O)(NCC1CCN(CCOc2cccc3c2OCCO3)C1)c1cccc(O)c1 (stereo not drawn) [Compound 303]	0

Inquiry: Say whether O=S(=O)(N[C@H]1CCN(CCCc2noc3cc(F)ccc23)C1)c1cc2ccccc2s1 [Compound 197] shows inhibition at 1 µM of 70% or more.
Reply text: 1

Inquiry: And the next one, O=S(=O)(NCC1CN(CCCc2noc3cc(F)ccc23)C1)c1cccc2ccccc12 [Compound 133] ?
Reply text: 0

Inquiry: Quick one: O=S(=O)(NCC1CN(CCCc2noc3cc(F)ccc23)C1)c1ccc2scnc2c1 [Compound 132]
Reply text: 0

Inquiry: One more compound: O=S(=O)(NC1CCN(CCCc2noc3cc(F)ccc23)C1)c1cc2ccc(F)cc2s1 (stereo not drawn) [Compound 234]
Reply text: 1

Inquiry: Would you mind doing O=S(=O)(NC1CCN(CCCc2noc3cc(F)ccc23)C1)c1ccc2cc(Cl)ccc2c1 (stereo not drawn) [Compound 23] as well?
Reply text: 0

---

biological target: dopaminergic receptors D3 (Homo sapiens, UniProt P35462); test: Radioligand binding assay, dopaminergic D3 receptors; details: test compound 1×10^−6 M
The following compounds are shown together with reported inhibition at 1 µM values.
Reply numerically in %, unit not repeated.

Compound	Experimental target	Measure unit	inhibition at 1 µM
O=S(=O)(NCC1CCN(CCOc2cccc3c2OCCO3)C1)c1ccc(F)cc1 (centres unmarked)	dopaminergic receptors D3 (Homo sapiens, UniProt P35462)	%	30
COc1ccc2cc(S(=O)(=O)N[C@@H]3CCN(CCCc4noc5cc(F)ccc45)C3)ccc2c1	dopaminergic receptors D3 (Homo sapiens, UniProt P35462)	%	99
O=S(=O)(NCC1CN(CCOc2cccc3c2OCCO3)C1)c1ccc2ccccc2c1	dopaminergic receptors D3 (Homo sapiens, UniProt P35462)	%	42
O=S(=O)(NC1CCN(CCCc2c[nH]c3ccc(Cl)cc23)C1)c1cccc(Cl)c1 (centres unmarked)	dopaminergic receptors D3 (Homo sapiens, UniProt P35462)	%	99

Inquiry: Quick one: inhibition at 1 µM of O=S(=O)(NCC1CN(CCOc2cccc3c2OCCO3)C1)c1cccs1 ?
Reply text: 39

Inquiry: Another: Cc1c(S(=O)(=O)N[C@H]2CCN(CCCc3noc4cc(F)ccc34)C2)sc2ccc(F)cc12
Reply text: 95

Inquiry: Try O=S(=O)(NCC1CN(CCOc2cccc3c2OCCO3)C1)c1ccc(Br)cc1 next.
Reply text: 0

Inquiry: Also check O=S(=O)(NC1CCN(CCCc2noc3cc(F)ccc23)C1)c1cc2ccccc2s1 (centres unmarked)
Reply text: 97

---

inhibition at 1 µM by entry:
target: serotonin transporter (SERT) (Homo sapiens, UniProt P31645); construct: expressed in transfected cells; host or cells: CHO cells; test: Radioligand binding assay, serotonin transporter (SERT); conditions: binding assay, test compound 1×10^−6 M
Kindly answer with a numeric value in %, unit omitted.

Solved cases below.
Compound	Experimental target	Endpoint value
O=S(=O)(NCC1CN(CCOc2cccc3c2OCCO3)C1)c1ccc2ccccc2c1	serotonin transporter (SERT) (Homo sapiens, UniProt P31645)	25
O=S(=O)(NCC1CCN(CCCc2noc3cc(F)ccc23)C1)c1ccc(F)cc1 (stereo not shown)	serotonin transporter (SERT) (Homo sapiens, UniProt P31645)	-2

Inquiry: Reported inhibition at 1 µM, compound COc1ccc2cc(S(=O)(=O)NC3CCN(CCCc4noc5cc(F)ccc45)C3)ccc2c1 (stereo not shown) : ____
Reply text: 69

Inquiry: And O=S(=O)(NC1CCN(CCCc2noc3cc(F)ccc23)CC1)c1ccc(-c2ccccc2)cc1 ?
Reply text: 33

---

Entries annotated with measured inhibition at 1 µM
biological target: α2C adrenergic receptors (Homo sapiens); construct: expressed in transfected cells; host or cells: CHO cells; assay: Radioligand binding assay, adrenergic α2C receptors; conditions: test compound 1×10^−6 M
// return numeric value only (unit: %, not printed)

Molecule	inhibition at 1 µM (%)
Cn1ccc2cc(S(=O)(=O)NCC3CCN(CCOc4cccc5c4OCCO5)C3)ccc21 (centres unmarked)	96
O=S(=O)(N[C@@H]1CCN(CCCc2noc3cc(F)ccc23)C1)c1csc2ccccc12	79

Now examine the next entry.
Inquiry: Look up inhibition at 1 µM: O=S(=O)(NC1CN(CCOc2cccc3[nH]ccc23)C1)c1cccc(Cl)c1
Reply text: 80

---

biological target: 5-HT6 receptor (Homo sapiens, UniProt P50406); construct: purchased PerkinElmer; assay: Radioligand binding assay, serotoninergic 5-HT6 receptors; conditions: binding assay result in %, Table 5a
Sequence (P50406 whole entry): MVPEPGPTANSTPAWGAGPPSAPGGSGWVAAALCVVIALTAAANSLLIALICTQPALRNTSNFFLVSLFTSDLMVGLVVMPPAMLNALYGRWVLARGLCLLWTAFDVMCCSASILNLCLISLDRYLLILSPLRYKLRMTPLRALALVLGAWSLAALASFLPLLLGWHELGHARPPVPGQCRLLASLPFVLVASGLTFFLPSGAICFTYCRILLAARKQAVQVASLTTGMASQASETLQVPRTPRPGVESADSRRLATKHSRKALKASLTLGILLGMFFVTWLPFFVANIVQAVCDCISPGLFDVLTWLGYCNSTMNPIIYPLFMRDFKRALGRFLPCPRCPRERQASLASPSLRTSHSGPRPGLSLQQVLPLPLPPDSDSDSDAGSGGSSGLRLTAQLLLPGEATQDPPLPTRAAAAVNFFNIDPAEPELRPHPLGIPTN
# inhibition at 1 µM listing for each entry below
Kindly provide the numeric value in % only, without the unit symbol.

For orientation, consider the following solved cases.
Molecule	Endpoint value
O=S(=O)(NC1CCN(CCCc2c[nH]c3ccc(Cl)cc23)C1)c1ccc2ccccc2c1 (centres unmarked)	91
O=S(=O)(NC1CCN(CCCc2noc3cc(F)ccc23)C1)c1ccc(F)cc1 (centres unmarked)	64
O=S(=O)(N[C@@H]1CCN(CCCc2noc3cc(F)ccc23)C1)c1cc2ccc(Cl)cc2s1	97
O=S(=O)(NC1CCN(CCCc2noc3cc(F)ccc23)C1)c1ccc(-c2ccccc2)cc1 (centres unmarked)	86
O=S(=O)(NCC1CCN(CCOc2cccc3ccccc23)C1)c1ccc2ccccc2c1 (centres unmarked)	99
O=S(=O)(NC1CN(CCOc2cccc3[nH]ccc23)C1)c1ccc(F)cc1	9

Inquiry: Field: inhibition at 1 µM (5-HT6 receptor (Homo sapiens, UniProt P50406)). Entry: O=S(=O)(NCC1CN(CCCc2noc3cc(F)ccc23)C1)c1ccc2scnc2c1
Reply text: 69

Inquiry: Next record, please: Cc1c(S(=O)(=O)NCC2CN(CCCc3noc4cc(F)ccc34)C2)sc2ccc(Cl)cc12
Reply text: 97

---

target: dopaminergic receptors D2 (Homo sapiens); assay: Radioligand binding assay, dopaminergic D2 receptors; conditions: binding assay, test compound 1×10^−6 M
Sequence (P14416 whole entry): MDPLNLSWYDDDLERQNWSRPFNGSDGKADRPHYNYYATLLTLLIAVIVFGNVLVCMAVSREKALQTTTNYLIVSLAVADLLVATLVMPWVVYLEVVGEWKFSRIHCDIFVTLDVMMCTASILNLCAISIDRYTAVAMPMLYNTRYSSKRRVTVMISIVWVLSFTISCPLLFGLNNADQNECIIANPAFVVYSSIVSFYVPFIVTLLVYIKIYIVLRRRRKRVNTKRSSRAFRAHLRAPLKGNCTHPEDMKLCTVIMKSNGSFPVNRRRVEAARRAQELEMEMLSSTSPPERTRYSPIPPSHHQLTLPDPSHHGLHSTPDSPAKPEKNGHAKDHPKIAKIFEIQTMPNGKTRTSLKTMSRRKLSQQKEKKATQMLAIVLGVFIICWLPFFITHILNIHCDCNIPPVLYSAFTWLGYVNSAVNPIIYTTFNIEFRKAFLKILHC
Decide using inhibition at 1 µM: a value greater than or equal to 80% is rule met, a smaller one is rule not met.

Compound	Cat
COc1ccc2cc(S(=O)(=O)NC3CCN(CCCc4noc5cc(F)ccc45)C3)ccc2c1 (centres unmarked)	rule met
O=S(=O)(NCC1CCN(CCOc2cccc3ccccc23)C1)c1ccc2cc(Cl)ccc2c1 (centres unmarked)	rule not met
Cc1c(S(=O)(=O)NCC2CCN(CCCc3noc4cc(F)ccc34)C2)sc2ccc(Cl)cc12 (centres unmarked)	rule met
O=S(=O)(NCC1CCN(CCCc2noc3cc(F)ccc23)C1)c1cccc2ccccc12 (centres unmarked)	rule met
Cn1ccc2cc(S(=O)(=O)NCC3CN(CCCc4noc5cc(F)ccc45)C3)ccc21	rule not met

Inquiry: Test whether the compound Cc1cc(S(=O)(=O)NCC2CCN(CCCc3noc4cc(F)ccc34)C2)c(C)s1 (centres unmarked) records inhibition at 1 µM of 80% or higher.
Reply text: rule not met

Inquiry: Now give it for O=S(=O)(NCC1CN(CCOc2cccc3ccccc23)C1)c1csc2ccccc12 too.
Reply text: rule not met

---

target: 5-HT7 receptor (Homo sapiens, UniProt P34969); construct: purchased PerkinElmer; experiment: Radioligand binding assay, serotoninergic 5-HT7 receptors; conditions: binding assay result in %, Table 5a
Sequence (P34969 whole entry): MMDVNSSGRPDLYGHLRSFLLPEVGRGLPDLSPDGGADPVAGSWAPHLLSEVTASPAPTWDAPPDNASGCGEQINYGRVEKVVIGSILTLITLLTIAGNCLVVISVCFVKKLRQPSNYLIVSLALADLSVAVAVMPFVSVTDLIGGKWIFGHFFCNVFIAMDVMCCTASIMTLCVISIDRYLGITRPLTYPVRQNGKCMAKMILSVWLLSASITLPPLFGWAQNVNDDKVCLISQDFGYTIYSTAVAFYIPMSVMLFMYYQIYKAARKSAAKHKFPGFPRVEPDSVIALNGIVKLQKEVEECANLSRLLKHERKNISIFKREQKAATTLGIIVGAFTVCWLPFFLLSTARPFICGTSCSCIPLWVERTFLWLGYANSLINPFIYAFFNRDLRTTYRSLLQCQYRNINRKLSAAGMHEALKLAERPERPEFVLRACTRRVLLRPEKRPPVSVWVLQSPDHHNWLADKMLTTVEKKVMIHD
Label not fulfilled if inhibition at 1 µM falls below 90%; label fulfilled in every other case.

Compound	Experimental target	Cat
O=S(=O)(NCC1CN(CCCc2noc3cc(F)ccc23)C1)c1ccc(Cl)s1	5-HT7 receptor (Homo sapiens, UniProt P34969)	not fulfilled
O=S(=O)(NCC1CCN(CCOc2cccc3c2OCCO3)C1)c1cccs1 (centres unmarked)	5-HT7 receptor (Homo sapiens, UniProt P34969)	fulfilled

Inquiry: Is the recorded value of inhibition at 1 µM equal to or greater than 90% for this compound? O=S(=O)(NC1CN(CCOc2cccc3[nH]ccc23)C1)c1ccc(F)cc1
Reply text: fulfilled

---

target: 5-HT7 serotoninergic receptors (Homo sapiens, UniProt P34969); test: Cellular functional assay, 5-HT7 serotoninergic receptors; type: cell-based; settings: agonist mode; percent of control specific agonist response
Sequence (P34969 whole entry): as above
Readout name: 5-HT7 ag [%] (%)
Expressed in %, but write only the number.

Take a look at these entries with their results.
Molecule	Measure unit	5-HT7 ag [%]
Cc1c(S(=O)(=O)NCC2CN(CCCc3noc4cc(F)ccc34)C2)sc2ccc(Cl)cc12	%	1
O=S(=O)(NC1CN(CCOc2cccc3[nH]ccc23)C1)c1cccc2ccccc12	%	26
O=S(=O)(N[C@H]1CCN(CCCc2noc3cc(F)ccc23)C1)c1cc2ccccc2o1	%	0
O=S(=O)(NCC1CCN(CCCc2noc3cc(F)ccc23)C1)c1ccc2ccccc2c1 (centres unmarked)	%	0
Cc1cccc(S(=O)(=O)NC2CN(CCOc3cccc4c3OCCO4)C2)c1	%	13

Inquiry: Bench note: what 5-HT7 ag [%] did O=S(=O)(NCC1CN(CCOc2cccc3ccccc23)C1)c1ccc2ccccc2c1 show?
Reply text: 21

Inquiry: Check CC(C)(C)c1ccc(S(=O)(=O)NCC2CN(CCOc3cccc4c3OCCO4)C2)cc1 too.
Reply text: 0

Inquiry: Request: O=S(=O)(NC1CCN(CCCc2noc3cc(F)ccc23)C1)c1ccc2cc(Cl)ccc2c1 (centres unmarked)
Reply text: −2
